test_system: Streptokinase A (Streptococcus pyogenes serotype M1)
protocol_details: viability-normalized secreted streptokinase activity reduction – plasminogen activation absorbance, OD405, dose response (AID 1914)
readout_kind: EC50

>>> print(df.to_string())
                                    compound                               test_system  obs_value
 0  CC(=N)C(C#N)C(=O)COC(=O)c1cc(-c2ccc(Br)cc2)nc2ccccc12 (stereo not given)  Streptokinase A (Streptococcus pyogenes serotype M1)    4.43 µM
 1  COc1cc(CN=Nc2nc(Nc3ccc(C)cc3)nc(-n3nc(C)cc3C)n2)cc(OC)c1OC  Streptokinase A (Streptococcus pyogenes serotype M1)   > 150 µM
 2  O=C1C(=NNC(=S)Nc2ccccc2F)c2ccccc2N1Cc1ccccc1  Streptokinase A (Streptococcus pyogenes serotype M1)   > 150 µM
 3  Cc1cc(N=NCc2ccc(O)c(C)c2O)nc(-c2ccccc2O)n1  Streptokinase A (Streptococcus pyogenes serotype M1)   > 150 µM
 4  O=C(Oc1cccc(CN=Nc2nc(Nc3ccccc3)nc(N3CCOCC3)n2)c1)c1ccco1  Streptokinase A (Streptococcus pyogenes serotype M1)   > 150 µM
 5  C=CCn1c(-n2c(O)cc(Cc3ccccc3)c2O)nc2ccccc21  Streptokinase A (Streptococcus pyogenes serotype M1)   > 150 µM
 6  CN(C)c1ccc(C2CC(c3ccc(Cl)cc3OC(F)F)=Nc3ncnn32)cc1 (stereo not given)  Streptokinase A (Streptococcus pyogenes serotype M1)   > 150 µM
 7  CCOC(=O)C1C(=N)Oc2ccc3ccccc3c2C1c1ccc(O)cc1 (stereo not given)  Streptokinase A (Streptococcus pyogenes serotype M1)    11.5 µM
 8  COc1cccc(C(=O)Oc2ccc(CN=Nc3ccc(C(=O)O)cc3)cc2OC)c1  Streptokinase A (Streptococcus pyogenes serotype M1)   > 150 µM
 9       COc1cccc(CN=Nc2cc(N3CCOCC3)ncn2)c1O  Streptokinase A (Streptococcus pyogenes serotype M1)   > 150 µM
10  CC(=N)C(C#N)C(=O)CSc1nc2cc(Cl)ccc2c(=O)n1Cc1ccco1 (stereo not given)  Streptokinase A (Streptococcus pyogenes serotype M1)   > 150 µM
11  Oc1ccc(Br)cc1CN=Nc1nc(N2CCCCC2)nc(N2CCOCC2)n1  Streptokinase A (Streptococcus pyogenes serotype M1)    33.6 µM
12  CC(N=Nc1nc(N2CCCCCC2)nc(N2CCCCCC2)n1)c1ccccc1 (stereo not given)  Streptokinase A (Streptococcus pyogenes serotype M1)     5.5 µM
13  O=C1C([N+](=O)[O-])=CC(Cl)=CC1CN=Nc1nc2ccccc2s1 (stereo not given)  Streptokinase A (Streptococcus pyogenes serotype M1)   > 150 µM
14  CC(C)C(N=Nc1ccccc1[N+](=O)[O-])c1ccccc1 (stereo not given)  Streptokinase A (Streptococcus pyogenes serotype M1)    18.4 µM
15  Cc1ccc2c(c1)=C(NNC(=O)c1ccc(NS(=O)(=O)c3cccs3)cc1)C(=O)N=2  Streptokinase A (Streptococcus pyogenes serotype M1)   > 150 µM
16  C[n+]1ccc(CN=Nc2nc(Cl)c(C#N)c(Cl)c2Cl)cc1  Streptokinase A (Streptococcus pyogenes serotype M1)   > 150 µM
17   CCCCCCC(=O)NNC=C1C(=O)NC(=S)N(CCCC)C1=O  Streptokinase A (Streptococcus pyogenes serotype M1)   > 150 µM
18  O=C1C=CC(N=Nc2ccc([N+](=O)[O-])cc2)C(O)=C1 (stereo not given)  Streptokinase A (Streptococcus pyogenes serotype M1)      50 µM
19  O=C1Nc2ccccc2SC1C=Nc1cccc(Cl)c1 (stereo not given)  Streptokinase A (Streptococcus pyogenes serotype M1)   > 150 µM
20         Cc1cc(N=NCc2cccc(Br)c2)nc2ccccc12  Streptokinase A (Streptococcus pyogenes serotype M1)   > 150 µM
21  C=c1[nH][nH]c(=O)c1=Cc1cn(-c2ccccc2)nc1-c1ccc(Cl)cc1  Streptokinase A (Streptococcus pyogenes serotype M1)    4.83 µM
22  Cc1cc(N=NC(C)c2ccccc2O)nc(-c2ccccc2O)n1 (stereo not given)  Streptokinase A (Streptococcus pyogenes serotype M1)      14 µM
23  CC(=NNC(=N)Sc1cc(O)n(-c2ccc(Br)cc2)c1O)c1cccs1  Streptokinase A (Streptococcus pyogenes serotype M1)    9.08 µM
24  O=C(CSc1ccc(Cl)cc1)Nc1cc(=O)n(-c2ccccc2)[nH]1  Streptokinase A (Streptococcus pyogenes serotype M1)    9.33 µM
25  CNC(=Nc1cc(Cl)ccc1Cl)Sc1cc(O)n(-c2ccc(C(=O)OC)cc2)c1O  Streptokinase A (Streptococcus pyogenes serotype M1)      50 µM
26          CN(C)c1ccc(CN=Nc2nc3ccccc3o2)cc1  Streptokinase A (Streptococcus pyogenes serotype M1)   > 150 µM
27  CCN(CC)c1ccc(C=NC(C#N)C(=N)C#N)cc1 (stereo not given)  Streptokinase A (Streptococcus pyogenes serotype M1)   > 150 µM
28  Cc1cc(Br)c(OCc2ccc(C(=O)NN=C3CC4CCC=C34)cc2)c(Br)c1 (stereo not given)  Streptokinase A (Streptococcus pyogenes serotype M1)   > 150 µM
29    CC(C)c1oc(NC(=O)Nc2ccc(Cl)c(Cl)c2)nc1O  Streptokinase A (Streptococcus pyogenes serotype M1)   > 150 µM
30  CCCCCCn1[nH]c(C)c(C(=O)c2ccc(Cl)cc2)c1=O  Streptokinase A (Streptococcus pyogenes serotype M1)   > 150 µM
31  O=C(N/N=C/C1C=C(Cl)C=C([N+](=O)[O-])C1=O)c1ccccc1NS(=O)(=O)c1cccs1 (stereo not given)  Streptokinase A (Streptococcus pyogenes serotype M1)   > 150 µM
32         CN1c2ccsc2C(NNc2ccccc2)=CS1(=O)=O  Streptokinase A (Streptococcus pyogenes serotype M1)    4.12 µM
33  O=C(Nc1nnc(-c2ccc(Br)cc2)o1)c1cccc(-n2c(O)ccc2O)c1  Streptokinase A (Streptococcus pyogenes serotype M1)   > 150 µM
34  S=C1N=C(C23CC4CC(CC(C4)C2)C3)CC(c2ccc3c(c2)OCO3)N1 (stereo not given)  Streptokinase A (Streptococcus pyogenes serotype M1)    22.5 µM
35  CCOC(=O)C1=C(Cc2ccc(CC)cc2)C(=O)c2ccccc2C1=O  Streptokinase A (Streptococcus pyogenes serotype M1)   > 150 µM
36  O=C1NC(=O)N(Cc2ccccc2)C(=O)C1=CNNC(=O)c1ccccc1  Streptokinase A (Streptococcus pyogenes serotype M1)   > 150 µM
37  O=C(O)c1ccc(N=NCc2ccc(OC(=O)c3ccccc3Cl)cc2)cc1  Streptokinase A (Streptococcus pyogenes serotype M1)   > 150 µM
38  O=C1NC(=S)N(C2CCCCC2)C(=O)C1=CNNC(=O)c1ccccc1  Streptokinase A (Streptococcus pyogenes serotype M1)   > 150 µM
39  O=C(CCCCCNC(=O)c1ccccc1)NNC1=c2cc(Br)cc(Br)c2=NC1=O  Streptokinase A (Streptococcus pyogenes serotype M1)   > 150 µM

====

# pEC50 per entry
test_system: Streptokinase A (Streptococcus pyogenes serotype M1, UniProt P10520)
Sequence (P10520 whole entry): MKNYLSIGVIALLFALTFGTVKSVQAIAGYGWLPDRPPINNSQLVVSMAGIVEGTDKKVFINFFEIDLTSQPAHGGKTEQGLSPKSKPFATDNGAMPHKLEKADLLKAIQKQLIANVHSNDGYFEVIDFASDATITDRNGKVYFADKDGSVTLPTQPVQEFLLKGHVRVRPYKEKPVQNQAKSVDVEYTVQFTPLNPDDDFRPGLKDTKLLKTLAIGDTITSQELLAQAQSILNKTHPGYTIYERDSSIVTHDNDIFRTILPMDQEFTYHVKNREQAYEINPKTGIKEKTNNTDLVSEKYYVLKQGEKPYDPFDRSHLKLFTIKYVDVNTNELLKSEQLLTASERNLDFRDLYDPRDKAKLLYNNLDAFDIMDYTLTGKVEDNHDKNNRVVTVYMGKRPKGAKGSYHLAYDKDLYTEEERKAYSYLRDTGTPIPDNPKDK
protocol_details: viability-normalized secreted streptokinase activity reduction – plasminogen activation absorbance, OD405, dose response (AID 1914)
pEC50: −log10 of the molar value.
readout_kind: pEC50

>>> df
                                        mol  obs_value
0  Cc1[nH]n(-c2nc3ccccc3[nH]2)c(=O)c1Cc1ccccc1     < 3.82
1         Cc1cc2nc(-n3c(O)c[nH]c3=S)sc2cc1C     < 3.82
2  CCCCN1C(=O)NC(=O)C(=C(C)Nc2ccc(OCC)cc2)C1=O     < 3.82
3  CCOc1cccc(CN=Nc2ccc(S(=O)(=O)N(CC)CC)cn2)c1O     < 3.82
4  Oc1cc(N(CCc2ccccc2)C(=S)Nc2ccccc2)c(O)n1-c1ccc(Br)cc1       5.57
5  O=C(O)c1ccc(N=NCc2ccc(OC(=O)c3cccc(Cl)c3)cc2)cc1     < 3.82
6  O=C1C(=NNC(=S)Nc2ccccc2F)c2ccccc2N1Cc1ccc(F)cc1       6.22
7  O=C(O)COc1ccc(CN=Nc2nc(Nc3ccccc3)nc(N3CCCCC3)n2)cc1     < 3.82

====

test_system: UniProt P10520
protocol_details: viability-normalized secreted streptokinase activity reduction – plasminogen activation absorbance, OD405, dose response (AID 1914)
pEC50: −log10 of the molar value.
readout_kind: pEC50

                                   molecule  readout_kind  obs_value
0  CC(N=Nc1ccc(Cl)c(Cl)c1)c1ccc(-n2ccnc2)cc1 (stereo not given)         pEC50       4.77
1  Cc1nc(N=NC(C)c2ccc(Br)cc2)cc(N2CCCCC2)n1 (stereo not given)         pEC50       4.33
2  C=CCN1C(=O)NC(=O)C(=C(C)Nc2ccc(N(CC)CC)cc2)C1=O         pEC50     < 3.82
3    CCOc1ccc(NC(=S)NNC2=c3ccccc3=NC2=O)cc1         pEC50     < 3.82
4  O=[N+]([O-])c1cc(Br)c(O)c(CN=Nc2nnnn2-c2cccc3ccccc23)c1         pEC50     < 3.82
5  Cc1[nH]c2ccccc2c1/C=C1\N=C(c2ccc(F)cc2)OC1=O         pEC50       4.78
6  C=c1[nH]n(-c2ccccc2)c(=O)c1=C(C=Cc1cccc(OC)c1OC)c1ccc(Br)cc1         pEC50     < 3.82
7  COC(=O)/N=N/C=C1\C=[N+]([O-])c2ccccc2N1O         pEC50     < 3.82
8          O=C1N=c2ccccc2=C1NNC(=S)N1CCOCC1         pEC50     < 3.82
9  CC(N=Nc1nc2ccc(Cl)cc2o1)c1ccccc1 (stereo not given)         pEC50     < 3.82
